Task for the reader: assign each of the following molecules its reported fold change (FC).
# TGT: Nuclear factor erythroid 2-related factor 2 (Mus musculus) (UniProt Q60795)
# Sequence (whole entry): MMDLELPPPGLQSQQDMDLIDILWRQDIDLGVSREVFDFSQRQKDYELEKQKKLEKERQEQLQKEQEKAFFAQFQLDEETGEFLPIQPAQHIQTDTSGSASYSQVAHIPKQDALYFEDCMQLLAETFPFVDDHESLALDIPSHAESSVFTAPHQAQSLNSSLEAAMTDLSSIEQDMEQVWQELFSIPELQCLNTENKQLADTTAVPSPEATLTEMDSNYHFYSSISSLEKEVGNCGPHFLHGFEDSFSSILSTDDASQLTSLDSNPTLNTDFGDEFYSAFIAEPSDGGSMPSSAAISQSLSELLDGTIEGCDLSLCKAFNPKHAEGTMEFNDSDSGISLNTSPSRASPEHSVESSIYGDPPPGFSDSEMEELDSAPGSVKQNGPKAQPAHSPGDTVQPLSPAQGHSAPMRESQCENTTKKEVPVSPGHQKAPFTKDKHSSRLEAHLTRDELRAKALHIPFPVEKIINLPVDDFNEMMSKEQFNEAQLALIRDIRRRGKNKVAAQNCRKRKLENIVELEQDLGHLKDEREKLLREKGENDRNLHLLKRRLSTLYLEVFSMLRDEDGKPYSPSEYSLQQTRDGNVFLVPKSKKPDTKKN
# TEST: Activation of Nrf2 in mouse RAW264.7 cells assessed as upregulation of HO1 protein expression at 50 uM after 6 hrs by Western blotting analysis
# Assay type: cell-based
The answer should be a number; do not append a unit.

-- ask Item O=C(O)c1cc(O)c(O)c(O)c1 : provide fold change (FC)
-- reply 1.5

-- ask Entry O=c1c(O)c(-c2ccc(O)c(O)c2)oc2cc(O)cc(O)c12 needs its fold change (FC) filled in; supply it.
-- reply 1.9

-- ask Using the record for O=C1c2c(O)cc(O)cc2O[C@H](c2ccc(O)c(O)c2)[C@H]1O [(+)-TAXIFOLIN] , state its measured fold change (FC).
-- reply 1

-- ask Answer with the recorded fold change (FC) of O=C(Oc1c(-c2ccc(O)c(O)c2)oc2cc(O)cc(O)c2c1=O)c1cc(O)c(O)c(O)c1 only.
-- reply 0.9

-- ask Indicate its recorded fold change (FC); the molecule in question is O=C(Oc1cc(O)c2c(c1)O[C@H](c1ccc(O)c(O)c1)[C@@H](O)C2=O)c1cc(O)c(O)c(O)c1
-- reply 2.3

-- ask Output fold change (FC) of O=c1c(O[C@@H]2O[C@H](CO)[C@@H](O)[C@H](O)[C@H]2O)c(-c2ccc(O)c(O)c2)oc2cc(O)cc(O)c12
-- reply 1

###

# Test system: RAW264.7
# TEST: Cytotoxicity against mouse RAW264.7 cells assessed as decreased cell viability at 50 uM after 6 hrs by MTT assay
# Format: cell-based
# CONDITIONS_USED: raw264.7, 6 h
QUANTITY_KIND: Activity (%)
Numeric only. Scale: %

-- ask Provide only the value of recorded Activity for O=C(Oc1cc(O)c2c(c1)O[C@H](c1ccc(O)c(O)c1)[C@@H](O)C2=O)c1cc(O)c(O)c(O)c1
-- reply 72

-- ask Could you please provide reported Activity for O=C(Oc1c(-c2ccc(O)c(O)c2)oc2cc(O)cc(O)c2c1=O)c1cc(O)c(O)c(O)c1 ? Thanks!
-- reply 79

-- ask Please report the measured Activity for O=C(O)c1cc(O)c(O)c(O)c1
-- reply 76
